assay: Chemical stability of the compound at 0.1 M citric acid buffer assessed as hydrolysis to parent compound at pH 3 after 4 hrs by HPLC analysis; format: physicochemical; details: pH 3, 4 h
QUANTITY: Stability

STRUCTURE AS SMILES: COc1ccc2c(c1)c(CC(=O)OCc1oc(=O)oc1C)c(C)n2C(=O)c1ccc(Cl)cc1
Stability: 0.0134 µg/mL
//
STRUCTURE AS SMILES: COc1ccc2c(c1)c(CC(=O)OCOC(=O)OC(C)C)c(C)n2C(=O)c1ccc(Cl)cc1
Stability: 0.00539 µg/mL
//
STRUCTURE AS SMILES: COc1ccc2c(c1)c(CC(=O)OCOC(=O)C(C)(C)C)c(C)n2C(=O)c1ccc(Cl)cc1
Stability: 0.0075 µg/mL

// below: Stability requested for another molecule
Request: Suppose we examine the molecule "COc1ccc2c(c1)c(CC(=O)OCCOC(C)=O)c(C)n2C(=O)c1ccc(Cl)cc1" ; what Stability value has been reported?
Response: 0.0092 µg/mL
